Catalogue of growth readings, one per entry.
# System: OVCAR-8 ovarian
# assay-remarks: NCI-60 one-dose screen, 48 h (100 = growth as untreated, 0 = no growth, -100 = all killed)
# details: 10 µM unless noted
# Procedure: Growth inhibition of the OVCAR-8 human tumor cell line is measured as a screen for anti-cancer activity. Cells are grown in 96 well plates and exposed to the test compound for 48 hours. Compounds are tested at a single concentration, which is 10^-5 M for most compounds. The reported endpoint is percent growth (GI% or GIPRCNT), where numbers from 0 - 100% represent growth inhibition, and numbers from -100% - 0 represent cell death. For example, a value of 40 represents 60% growth inhibition. […]
This is part of a sample that, as a whole, favours compounds with a hit. Of some 83,000 tested, about 20% had one in any assay.
Your answer is read as %, so omit the unit and give the number.

Use these answered entries as a reference point.
# compound, growth [%]
measured = [
    ("COC(=O)CCCNc1c(-c2c(O)c(O)cc3c(O)c(-c4c(C)cc5c(-c6nc7ccccn7c6NCCCC(=O)OC)c(O)c(O)cc5c4O)c(C)cc23)nc2ccccn12", 51.4),
    ("COC(=O)[C@@H](NC(=O)[C@@H](OC)[C@@H]1Cc2cc3cc(OC4CC(OC5CC(O)C(O)C(C)O5)C(O)C(C)O4)c(C)c(O)c3c(O)c2C(=O)[C@H]1OC1CC(OC2CC(OC3CC(C)(O)C(O)C(C)O3)C(O)C(C)O2)C(O)C(C)O1)C(C)C (some centres undefined)", 12.6),
    ("COc1ccc(-c2nc(N)ncc2Oc2ccccc2OC)c(O)c1", 35.6),
]

# value lookup — system OVCAR-8 ovarian, readout growth, item N#CC1(C#N)C(c2cccs2)NC(c2cccs2)C1(C#N)C#N (centres undefined) 101

====

# Tested on: MCF7 breast
# assay-remarks: NCI-60 one-dose screen, 48 h
# details: 10 µM unless noted
Compounds without any hit were thinned out: in the full panel of roughly 83,000, 20% have a hit. Calls of active or inactive are those of the source. Rule for the calls: active = growth percent below 10; inactive = the rest.
# output must be one of active, inactive

Recorded results for 4 molecules are shown here.
# molecule, cat
data = [
    ("Nc1ncnc2c1c(-c1cccc(OCc3ccccc3)c1)cn2C1CC(CN2CCC2)C1 (centres undefined)", "active"),
    ("CC(C)(C)C(=O)OCOP(=O)(OCOC(=O)C(C)(C)C)C1CCCN(OC(=O)c2ccccc2)C1=O (centres undefined)", "active"),
    ("Cn1ccnc1C(=O)/C=C/c1ccc(CC(=O)Nc2ccc(S(F)(F)(F)(F)F)cc2)cc1", "inactive"),
    ("COc1ccc(-c2nocc2-c2cc(OC)c(OC)c(OC)c2)cc1", "inactive"),
]

Per the assay record, what outcome was assigned to COC(=O)[C@H](Cc1ccccc1)NC(=O)[C@@H](OC)[C@@H]1Cc2cc3cc(OC4CC(OC5CC(O)C(O)C(C)O5)C(O)C(C)O4)c(C)c(O)c3c(O)c2C(=O)[C@H]1OC1CC(OC2CC(OC3CC(C)(O)C(O)C(C)O3)C(O)C(C)O2)C(O)C(C)O1 (some centres undefined) ? active

Another: `O=C(Cc1ccc(/C=C/C(=O)c2ncc[nH]2)cc1)Nc1ccc(S(F)(F)(F)(F)F)cc1` inactive

Another: `CCc1nc2cc(F)c(/C=C/C(=O)NO)cc2c(=O)n1CCc1ccccc1` inactive

Another: `CCCCCc1ccc(C)cc1OC(=O)CCl` inactive

Another: `COc1cccc(NC(=O)Nc2ccc(Nc3ncnc4sc5c(c34)CCN(C(=O)CCl)C5)cc2)c1` inactive

Another: `CC(C)(C)c1nc(-c2cccc(NS(=O)(=O)c3c(F)cccc3F)c2F)c(-c2ccnc(N)n2)s1` inactive

Another: `Cc1ccc(N)cc1CN1C(=O)c2ccccc2C1=O` inactive

Another: `NC1=Nc2cc(OCCCN3Cc4ccccc4C3)c(OCC3CC3)cc2C12CCCC2` inactive

Another: `CO[C@H]1C[C@@H]2CC[C@@H](C)[C@@](O)(O2)C(=O)C(=O)N2CCCC[C@H]2C(=O)O[C@H]([C@H](C)C[C@@H]2CC[C@@H](OP(C)(C)=O)[C@H](OC)C2)CC(=O)[C@H](C)/C=C(\C)[C@@H](O)[C@@H](OC)C(=O)[C@H](C)C[C@H](C)\C=C/C=C/C=C/1C` inactive

Another: `CO[C@@H](C(=O)N1Cc2[nH]nc(NC(=O)c3ccc(N4CCN(C)CC4)cc3)c2C1)c1ccccc1` inactive

Another: `O=C(c1ccc(/C=C/c2n[nH]c3ccccc23)cc1)N1CCNCC1` inactive

Another: `Cc1cc2c(F)c(Oc3ncnn4cc(OC[C@@H](C)OC(=O)[C@H](C)N)c(C)c34)ccc2[nH]1` inactive

Another: Cc1cc(C(O)CN(C)C)cc2c1ccc1cc(C(C)C)ccc12 (centres undefined) active

Another: `COc1cnc2c(c1)C(=O)c1c-2n(CCCNC2=NCCS2)c(=O)c2cc(Cl)ccc12` active

Another: CC(=O)OC1Oc2ccccc2-c2oc(=O)c(-c3cc4ccc(N(C)C)cc4oc3=O)cc21 (centres undefined) inactive

Another: `Nc1c(C(=O)c2ccccc2)sc2nc(-c3cccs3)ccc12` inactive

Another: `Cc1cc(C(=O)NOCCO)c(Nc2ccc(I)cc2F)n(C)c1=O` inactive

====

# Test system: NCI/ADR-RES ovarian
# assay-remarks: NCI-60 one-dose screen, 48 h (100 = growth as untreated, 0 = no growth, -100 = all killed)
# details: 10 µM unless noted
About 83,000 compounds went through this panel and 20% of them were active in at least one assay; those are over-represented in the sample as a whole.
result-type: growth (%)
Your answer is read as %, so omit the unit and give the number.

# smiles-data, result-type, quantitative-result
data = [
    ("CCc1cc2c(cc1N1CCC(N3CCOCC3)CC1)C(C)(C)c1[nH]c3cc(C#N)ccc3c1C2=O", "growth", -1.18),
    ("CC(C)(C)c1nc(-c2cccc(NS(=O)(=O)c3c(F)cccc3F)c2F)c(-c2ccnc(N)n2)s1", "growth", 95.5),
]

# value lookup — system NCI/ADR-RES ovarian, readout growth, item `Cn1cnc(-c2cc3nccc(Oc4ccc(NC(=S)NC(=O)Cc5ccccc5)cc4F)c3s2)c1` 96

Another: `CS(=O)(=O)CCNCc1ccc(-c2ccc3ncnc(Nc4ccc(OCc5cccc(F)c5)c(Cl)c4)c3c2)o1` 8.75

====

Catalogue of growth readings, one per entry.
# Tested on: RPMI-8226 leukemia
# assay-remarks: NCI-60 one-dose screen, 48 h (100 = growth as untreated, 0 = no growth, -100 = all killed)
# details: 10 µM unless noted
The panel holds about 83,000 compounds, 20% with a hit somewhere; the sample as a whole holds those more often.
Your answer is read as %, so omit the unit and give the number.

Use these answered entries as a reference point.
# compound, quantitative-result
data = [
    ("CCOC(=O)C1=C(C)N=C2Sc3cc(OC(F)(F)F)ccc3N2[C@H]1c1ccccn1", 33.6),
    ("Cc1csc(-c2nnc(Nc3ccc(Oc4ncccc4-c4ccnc(N)n4)cc3)c3ccccc23)c1", 51.8),
    ("N#Cc1c(C(F)(F)F)cc(Nc2ccc3nc(NCCN4CCCC4)oc3c2)n2c1nc1ccccc12", 44.6),
    ("O=C(O)C1(Cc2cccc(Nc3nccs3)n2)CCC(Oc2cccc(Cl)c2F)CC1 (centres undefined)", 59.8),
]

Please report the recorded growth for `COc1ccc(CCCc2c3[n+](cc4c(OC)c(OC)ccc24)CCc2cc4c(cc2-3)OCO4)cc1` . 20.5

Another: `COc1ccc(Br)cc1NC(=O)Nc1cccc2c1ccn2Cc1ccnc(N)c1` 15.2

Another: Cc1cccc(C)c1N1C(c2ccccc2)=NNC12C=CC(=O)c1c(O)cccc12 (centres undefined) 75.6

====

# System: SF-295 CNS
# assay-remarks: NCI-60 one-dose screen, 48 h (100 = growth as untreated, 0 = no growth, -100 = all killed)
# details: 10 µM unless noted
The panel holds about 83,000 compounds, 20% with a hit somewhere; the sample as a whole holds those more often.
The label depends only on growth: Y if it is at least 60%, N if it is smaller.

Recorded results for 2 compounds are shown here.
# smiles-data, cat
records = [
    ("Cc1ccc(Nc2nccc(N(C)c3ccc4c(C)n(C)nc4c3)n2)cc1S(N)(=O)=O", "N"),
    ("COc1cc(Nc2ncc3c(n2)-c2ccc(Cl)cc2C(c2c(F)cccc2OC)=NC3)ccc1C(=O)O", "Y"),
]

Given the entry `Cc1cc(N2CCCC2)nc(N(CCCNc2ccnc3cc(Cl)ccc23)Cc2ccc3c(c2)OCO3)n1` , answer whether its growth meets or surpasses 60%. N

Another: `C=C1CC[C@@H]2[C@](C)(COC(C)=O)[C@H](OC(C)=O)CC[C@@]2(C)[C@@H]1C/C=C1/C(=O)OC[C@H]1OC(C)=O` Y

Another: `CN(c1ncccc1CNc1nc(Nc2ccc3c(c2)CC(=O)N3)ncc1C(F)(F)F)S(C)(=O)=O` N

Another: `Cc1cc(-c2cc(OC(=O)c3ccccc3)ccc2Cl)cc2nnc(Nc3ccc(OCCN4CCCC4)cc3)nc12` Y

Another: `C=CC(=O)N1CCC(Oc2cc3c(Nc4ccc(Cl)c(Cl)c4F)ncnc3cc2OC)CC1` N

Another: `Cn1ccnc1C(=O)/C=C/c1ccc(CC(=O)Nc2ccc(Br)cc2)cc1` N

Another: `COCCN1CCN(Cc2ccc(-c3n[nH]c4c3C(=O)c3c(NC(=O)NN5CCOCC5)cccc3-4)cc2)CC1` N

Another: `NS(=O)(=O)c1ccc(CCN2C(=O)/C(=C\c3ccc(Cl)cc3)C=C2c2ccc3ccccc3c2)cc1` Y

Another: `O=C(c1ccc(F)c(F)c1Nc1ccc(I)cc1F)N1CC(O)([C@@H]2CCCCN2)C1` N

Another: `Oc1ccc(/C=N/Nc2nnc(N/N=C/c3ccc(O)cc3O)c3ccccc23)c(O)c1` N

Another: `COc1cccc(NC(=O)Nc2ccc(Nc3ncnc4sc5c(c34)CCN(C(=O)CCl)C5)cc2)c1` Y

Another: `Cc1cc(N(CCNc2ccnc3cc(Cl)ccc23)Cc2cccs2)nc(Cl)n1` N
